# SUBJECT_OF_TEST: T1, MBP-fused PDZ domain of ARHGEF12 (human, UniProt Q9NZN5 72-151)
# T1 sequence (looked up): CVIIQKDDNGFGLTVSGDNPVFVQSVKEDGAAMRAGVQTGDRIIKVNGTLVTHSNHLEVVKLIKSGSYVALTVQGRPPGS
# PROTOCOL_SUMMARY: fluorescence polarisation
Where no end group is shown, it is not given here.
# key: entry, value: pKd
In simple prose, pKd is minus the logarithm base ten of a concentration in moles per litre.

BINDER	pKd
KLPSTTL (peptide, UniProt Q15418 729-735, looked up, also: fluorescein labeled, site not given here) [fluorescein labeled RSK1 729-735 peptide, unphosphorylated]	5.12

Alright, here's another binder for you.
Ask: Identify measured pKd corresponding to KLPSTTL (peptide, UniProt Q15418 729-735, looked up, phosphorylated; fluorescein labeled) [fluorescein labeled RSK1 729-735 peptide, phosphorylated]
Result: 4.54
